test summary: Testing for mydriasis
condition summary: rat, in vivo, iv; pupil observed for 10 minutes
reported metric: ED50 at 10 min (mg/kg)

1) CN1CCC(CC(=O)N2c3ccccc3NC(=O)c3cscc32)CC1 [A] :: 0.03
